# measured-on: T1, recombinant human TRAIL R2 (DR5)/Fc chimera (human, UniProt O14763 54-182)
# T1 construct: bought (R&D Systems); not shown: Fc of the bought chimera (R&D Systems)
# measurement-protocol: SPR (Biacore), DR5-Fc captured by anti-Fc, ATRIMER analyte; apparent
koff reference

- binder: "029-15.B3D (designed binder, ATRIMER; also called 9b3d) EPPTQKPKKIVNAKKDVVNTKMFEELKSRLDTLAQEVALLKEQQALQTVCLKGTKVHMKCFLAFTQTKTFHEASEDCISRGGTLSTPQTGSENDALYEYLRQSVGNEAEIWLGLNELRTDGLWVDMTGARIAYKNWETEITAQPDGGVMRRSENCAVLSGAANGKWFDKRCRDQLPYICQFGIV"
  koff, s⁻¹: 0.000104
- binder: "029-15.A3C (designed binder, ATRIMER; also called 4a8c) EPPTQKPKKIVNAKKDVVNTKMFEELKSRLDTLAQEVALLKEQQALQTVCLKGTKVHMKCFLAFTQTKTFHEASEDCISRGGTLSTPQTGSENDALYEYLRQSVGNEAEIWLGLNRATLRPRWVDMTGARIAYKNWETEITAQPDGGKNCAVLSGAANGKWFDKRCRDQLPYICQFGIV"
  koff, s⁻¹: 0.000362
- binder: "029-15.A1H (designed binder, ATRIMER; also called 8b6b) EPPTQKPKKIVNAKKDVVNTKMFEELKSRLDTLAQEVALLKEQQALQTVCLKGTKVHMKCFLAFTQTKTFHEASEDCISRGGTLSTPQTGSENDALYEYLRQSVGNEAEIWLGLNRAVLRPRWVDMTGARIAYKNWETEITAQPDGGWVLGGKNCAVLSGAANGKWFDKRCRDQLPYICQFGIV"
  koff, s⁻¹: 0.000506
- binder: "029-15.B9F (designed binder, ATRIMER; also called 2a1a) EPPTQKPKKIVNAKKDVVNTKMFEELKSRLDTLAQEVALLKEQQALQTVCLKGTKVHMKCFLAFTQTKTFHEASEDCISRGGTLSTPQTGSENDALYEYLRQSVGNEAEIWLGLNKRVWYRGWVDMTGARIAYKNWETEITAQPDGGMRRRRENCAVLSGAANGKWFDKRCRDQLPYICQFGIV"
  koff, s⁻¹: 0.00184
- binder: "029-15.A8G (designed binder, ATRIMER; also called 1a7b) EPPTQKPKKIVNAKKDVVNTKMFEELKSRLDTLAQEVALLKEQQALQTVCLKGTKVHMKCFLAFTQTKTFHEASEDCISRGGTLSTPQTGSENDALYEYLRQSVGNEAEIWLGLNRAWLRPRWVDMTGARIAYKNWETEITAQPDGGTLVSGENCAVLSGAANGKWFDKRCRDQLPYICQFGIV"
  koff, s⁻¹: 0.000629
